- EXPERIMENTAL_TARGET: Tyrosine-protein kinase FRK (Homo sapiens, UniProt P42685)
- Sequence (P42685 whole entry): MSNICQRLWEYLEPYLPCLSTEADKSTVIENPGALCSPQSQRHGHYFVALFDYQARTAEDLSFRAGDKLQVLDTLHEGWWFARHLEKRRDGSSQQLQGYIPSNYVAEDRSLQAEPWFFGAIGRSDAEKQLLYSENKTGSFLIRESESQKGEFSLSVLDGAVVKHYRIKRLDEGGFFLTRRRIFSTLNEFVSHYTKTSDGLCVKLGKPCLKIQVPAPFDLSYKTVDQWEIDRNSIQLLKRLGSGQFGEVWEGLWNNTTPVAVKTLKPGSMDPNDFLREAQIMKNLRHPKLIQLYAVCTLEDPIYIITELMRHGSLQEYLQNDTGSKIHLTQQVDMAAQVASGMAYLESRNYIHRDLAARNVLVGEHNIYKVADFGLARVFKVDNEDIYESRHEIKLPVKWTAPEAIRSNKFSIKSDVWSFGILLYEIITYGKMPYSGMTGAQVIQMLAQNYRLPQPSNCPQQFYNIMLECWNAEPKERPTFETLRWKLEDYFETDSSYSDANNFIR
- ASSAY_DETAILS: Inhibition of FRK (unknown origin) by TR-FRET-based Z'-LYTE assay
MEASURED_ENDPOINT: IC50

>>> df
                  compound_structure_string  recorded_value
0  C[C@H]1Oc2cc(cnc2N)-c2c(nn(C)c2C#N)CN(C)C(=O)c2ccc(F)cc21        0.053 µM

###

- ASSAY_DETAILS: physchem
- MEASUREMENT_CONDITIONS: octanol/water, pH 7.4
molecules and their reported logD
MEASURED_ENDPOINT: logD

                  compound_structure_string  measured_endpoint  recorded_value
0  C[C@H]1Oc2cc(cnc2N)-c2c(nn(C)c2C#N)CCOc2ccc(F)cc21               logD             3.3
1  CNC(=O)c1ccc(F)cc1[C@@H](C)Oc1nc(-c2cccnc2OC)cnc1N               logD               3
2  Cn1ncc2c1-c1cnc(N)c(c1)OCc1cc(F)ccc1OCCC2               logD             3.4
3  C[C@H]1Oc2nc(cnc2N)-c2c(nc3ccc(C#N)cn23)CN(C)C(=O)c2ccc(F)cc21               logD             2.4
4  Cc1nn(C)c2c1-c1cnc(N)c(c1)O[C@@H](C)c1cc(F)ccc1C(=O)N(C)C2               logD             2.2
